Experiment: Plasma concentrations of BVDU, BVU and GEM in patients of the dose finding study (HPLC)
Type: in vivo, human
Conditions: human, plasma, po, dose level 7500 mg; 3.0 hr; day 1; oral BVDU; read-out: BVDU plasma concentration, Median
endpoint.label: concentration at 3 h (ng/mL)

| molecule | unit.annotation | reported.result |
| --- | --- | --- |
| O=c1[nH]c(=O)n([C@H]2C[C@H](O)[C@@H](CO)O2)cc1/C=C/Br [BVDU, (E)-5-(2-bromovinyl)-2′-deoxyuridine] | ng/mL | 304 |

###

Experiment: Plasma concentrations of BVDU, BVU and GEM in patients of the dose finding study (HPLC)
Format: in vivo, human
Conditions: both sexes, human, plasma, po, dose level 7500 mg; 0.0 hr; day 1; oral BVDU; read-out: BVDU plasma concentration, patient

| molecule | unit.annotation | concentration at 0 hr |
| --- | --- | --- |
| O=c1[nH]c(=O)n([C@H]2C[C@H](O)[C@@H](CO)O2)cc1/C=C/Br [BVDU, (E)-5-(2-bromovinyl)-2′-deoxyuridine] | ng/mL | 0 |

###

Assay: Plasma concentrations of BVDU, BVU and GEM in patients of the dose finding study (HPLC)
Format: in vivo, human
Details: both sexes, human, plasma, po, dose level 6000 mg; 1.0 hr; day 1; oral BVDU; read-out: BVDU plasma concentration, Median

| compound | unit.annotation | concentration at 1 hr |
| --- | --- | --- |
| O=c1[nH]c(=O)n([C@H]2C[C@H](O)[C@@H](CO)O2)cc1/C=C/Br [BVDU, (E)-5-(2-bromovinyl)-2′-deoxyuridine] | ng/mL | 109 |

###

Assay: Plasma concentrations of BVDU, BVU and GEM in patients of the dose finding study (HPLC)
Assay type: in vivo, human
Settings: human, plasma, po, dose level 9000 mg; 3.0 hr; day 1; oral BVDU; read-out: BVDU plasma concentration, Median
Procedure: Dose finding study: 22 Patients with advanced pancreatic adenocarcinoma were eligible for treatment in this single arm study. The mean age was 60 years and 73% of patients were males. One patient without progressive disease was excluded from the study for withdrawal of consent after the first cycle. Of the 21 patients left, 15 were in stage IV and 6 in stage III. BVDU was administered in a combination with GEM. On day 1, on day 8 and on day 15 of each 28-day cycle, BVDU was given together with GEM. […]

| molecule | unit.annotation | concentration at 3 h |
| --- | --- | --- |
| O=c1[nH]c(=O)n([C@H]2C[C@H](O)[C@@H](CO)O2)cc1/C=C/Br [BVDU, (E)-5-(2-bromovinyl)-2′-deoxyuridine] | ng/mL | 441 |

###

Test: Plasma concentrations of BVDU, BVU and GEM in patients of the dose finding study (HPLC)
Format: in vivo, human
Details: both sexes, human, plasma, po, dose level 12000 mg; 4.0 hr; day 1; oral BVDU; read-out: BVDU plasma concentration, Mean
Procedure: Dose finding study: 22 Patients with advanced pancreatic adenocarcinoma were eligible for treatment in this single arm study. The mean age was 60 years and 73% of patients were males. One patient without progressive disease was excluded from the study for withdrawal of consent after the first cycle. Of the 21 patients left, 15 were in stage IV and 6 in stage III. BVDU was administered in a combination with GEM. On day 1, on day 8 and on day 15 of each 28-day cycle, BVDU was given together with GEM. […]

| molecule | concentration at 4 h |
| --- | --- |
| O=c1[nH]c(=O)n([C@H]2C[C@H](O)[C@@H](CO)O2)cc1/C=C/Br [BVDU, (E)-5-(2-bromovinyl)-2′-deoxyuridine] | 543 ng/mL |

###

Assay: Plasma concentrations of BVDU, BVU and GEM in patients of the dose finding study (HPLC)
Format: in vivo, human
Details: both sexes, human, plasma, po, dose level 6000 mg; 1.5 hr; day 1; oral BVDU; read-out: BVDU plasma concentration, Median

| molecule | unit.annotation | concentration at 1.5 hr |
| --- | --- | --- |
| O=c1[nH]c(=O)n([C@H]2C[C@H](O)[C@@H](CO)O2)cc1/C=C/Br [BVDU, (E)-5-(2-bromovinyl)-2′-deoxyuridine] | ng/mL | 226 |

###

Assay: Plasma concentrations of BVDU, BVU and GEM in patients of the dose finding study (HPLC)
Format: in vivo, human
Conditions: both sexes, human, plasma, po, dose level 12000 mg; 0.0 hr; day 1; oral BVDU; read-out: BVDU plasma concentration, Median

| molecule | concentration at 0 h (µg/mL) |
| --- | --- |
| O=c1[nH]c(=O)n([C@H]2C[C@H](O)[C@@H](CO)O2)cc1/C=C/Br [BVDU, (E)-5-(2-bromovinyl)-2′-deoxyuridine] | 0 |

###

Experiment: Plasma concentrations of BVDU, BVU and GEM in patients of the dose finding study (HPLC)
Assay type: in vivo, human
Conditions: both sexes, human, plasma, po, dose level 12000 mg; 1.0 hr; day 1; oral BVDU; read-out: BVDU plasma concentration, Mean

| compound | concentration at 1 h / ng/mL |
| --- | --- |
| O=c1[nH]c(=O)n([C@H]2C[C@H](O)[C@@H](CO)O2)cc1/C=C/Br [BVDU, (E)-5-(2-bromovinyl)-2′-deoxyuridine] | 1160 |

###

Test: Plasma concentrations of BVDU, BVU and GEM in patients of the dose finding study (HPLC)
Format: in vivo, human
Settings: both sexes, human, plasma, po, dose level 12000 mg; 0.0 hr; day 1; oral BVDU; read-out: BVDU plasma concentration, Mean

| compound | concentration at 0 h |
| --- | --- |
| O=c1[nH]c(=O)n([C@H]2C[C@H](O)[C@@H](CO)O2)cc1/C=C/Br [BVDU, (E)-5-(2-bromovinyl)-2′-deoxyuridine] | 0 ng/mL |

###

Assay: Plasma concentrations of BVDU, BVU and GEM in patients of the dose finding study (HPLC)
Format: in vivo, human
Settings: both sexes, human, plasma, po, dose level 6000 mg; 1.5 hr; day 1; oral BVDU; read-out: BVDU plasma concentration, Mean

| molecule | concentration at 1.5 hr |
| --- | --- |
| O=c1[nH]c(=O)n([C@H]2C[C@H](O)[C@@H](CO)O2)cc1/C=C/Br [BVDU, (E)-5-(2-bromovinyl)-2′-deoxyuridine] | 250 ng/mL |

###

Experiment: Plasma concentrations of BVDU, BVU and GEM in patients of the dose finding study (HPLC)
Type: in vivo, human
Conditions: both sexes, human, plasma, po, dose level 10500 mg; 0.5 hr; day 1; oral BVDU; read-out: BVDU plasma concentration, Median

| compound | unit.annotation | concentration at 0.5 h |
| --- | --- | --- |
| O=c1[nH]c(=O)n([C@H]2C[C@H](O)[C@@H](CO)O2)cc1/C=C/Br [BVDU, (E)-5-(2-bromovinyl)-2′-deoxyuridine] | ng/mL | 1150 |

###

Assay: Plasma concentrations of BVDU, BVU and GEM in patients of the dose finding study (HPLC)
Format: in vivo, human
Conditions: both sexes, human, plasma, po, dose level 6000 mg; 4.0 hr; day 1; oral BVDU; read-out: BVDU plasma concentration, Median
endpoint.label: concentration at 4 hr (ng/mL)

| compound | endpoint.label | reported.result |
| --- | --- | --- |
| O=c1[nH]c(=O)n([C@H]2C[C@H](O)[C@@H](CO)O2)cc1/C=C/Br [BVDU, (E)-5-(2-bromovinyl)-2′-deoxyuridine] | concentration at 4 hr | 122 |

###

Experiment: Plasma concentrations of BVDU, BVU and GEM in patients of the dose finding study (HPLC)
Format: in vivo, human
Conditions: both sexes, human, plasma, po, dose level 12000 mg; 5.0 hr; day 1; oral BVDU; read-out: BVDU plasma concentration, Median
endpoint.label: concentration at 5 h (ng/mL)

| compound | reported.result |
| --- | --- |
| O=c1[nH]c(=O)n([C@H]2C[C@H](O)[C@@H](CO)O2)cc1/C=C/Br [BVDU, (E)-5-(2-bromovinyl)-2′-deoxyuridine] | 1070 |

###

Test: Plasma concentrations of BVDU, BVU and GEM in patients of the dose finding study (HPLC)
Type: in vivo, human
Conditions: both sexes, human, plasma, po, dose level 7500 mg; 9.0 hr; day 1; oral BVDU; read-out: BVDU plasma concentration, Mean
endpoint.label: concentration at 9 hr

| compound | endpoint.label | reported.result |
| --- | --- | --- |
| O=c1[nH]c(=O)n([C@H]2C[C@H](O)[C@@H](CO)O2)cc1/C=C/Br [BVDU, (E)-5-(2-bromovinyl)-2′-deoxyuridine] | concentration at 9 hr | 952 ng/mL |

###

Assay: Plasma concentrations of BVDU, BVU and GEM in patients of the dose finding study (HPLC)
Format: in vivo, human
Conditions: human, plasma, po, dose level 9000 mg; 4.0 hr; day 1; oral BVDU; read-out: BVDU plasma concentration, Mean

| compound | concentration at 4 h, ng/mL |
| --- | --- |
| O=c1[nH]c(=O)n([C@H]2C[C@H](O)[C@@H](CO)O2)cc1/C=C/Br [BVDU, (E)-5-(2-bromovinyl)-2′-deoxyuridine] | 420 |
